test-protocol: Hematology assays after subcutaneous administration in CD-1 mice (Example 6)
Assay type: in vivo
reported-conditions: 50 mg/kg subcutaneous twice weekly for 7 weeks
Strand notation (5' to 3'): a small letter for the sugar, then the base; units joined by * are phosphorothioate-linked, units joined directly phosphodiester-linked; [ ] holds rarer units or linkages, { } end groups; capitals alone tell only the bases. k = constrained ethyl (cEt); [5mC] = 5-methylcytosine; d = 2'-deoxy (DNA)
# Lookup of reported MCHC keyed by entry

substance	unit-of-measure	MCHC
790615 (CCAATGAGAATGCTTC; 3-10-3 cEt gapmer, further chemistry not given here) [compound 790615]	g/dL	32.8
829994 (GGAGGCAGGGCCGCGA; 3-10-3 cEt gapmer, further chemistry not given here) [compound 829994]	g/dL	32.7
830027 (antisense kA*kA*k[5mC]*d[5mC]*dA*dT*dT*dT*dA*dT*d[5mC]*dT*dG*kG*kT*kG) [compound 830027]	g/dL	32.9
830025 (antisense TTTGTAAATCGAAAGC; 3-10-3 cEt gapmer, further chemistry not given here) [compound 830025]	g/dL	32.3
